# system-tested: T1, TNFR1 on THP-1 Lucia NF-kB reporter cells (UniProt P19438 30-455, limits assumed)
# T1 sequence (looked up): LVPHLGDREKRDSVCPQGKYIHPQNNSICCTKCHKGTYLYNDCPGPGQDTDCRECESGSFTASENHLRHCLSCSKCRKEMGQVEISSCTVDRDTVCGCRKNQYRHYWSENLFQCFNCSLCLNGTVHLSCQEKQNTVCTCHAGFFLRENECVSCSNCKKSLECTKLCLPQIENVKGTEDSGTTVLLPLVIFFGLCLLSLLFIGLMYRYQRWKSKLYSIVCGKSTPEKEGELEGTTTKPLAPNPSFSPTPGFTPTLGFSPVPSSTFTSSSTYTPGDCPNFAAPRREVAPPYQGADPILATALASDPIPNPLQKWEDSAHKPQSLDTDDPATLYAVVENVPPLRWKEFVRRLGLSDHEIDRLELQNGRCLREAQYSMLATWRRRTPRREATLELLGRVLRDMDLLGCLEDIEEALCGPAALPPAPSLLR
# protocol-text: cell-based or functional assay
Square brackets hold non-standard residues; d marks the D form. Trp(βS-Me,7-OMe) = COc1cccc2c([C@H](C)[C@H](N)C(=O)O)c[nH]c12; Trp(7-Cl) = N[C@@H](Cc1c[nH]c2c(Cl)cccc12)C(=O)O; Phe(3-COOH) = N[C@@H](Cc1cccc(C(=O)O)c1)C(=O)O; Phe(4-COOH) = N[C@@H](Cc1ccc(C(=O)O)cc1)C(=O)O; 4Pal = N[C@@H](Cc1ccncc1)C(=O)O; NMeE = CN[C@@H](CCC(=O)O)C(=O)O; 40Me3Pal = not defined here; αMeS = C[C@](N)(CO)C(=O)O; Nle = CCCC[C@H](N)C(=O)O; Pip2c = not defined here; MO2 = not defined here; Sar = CNCC(=O)O
endpoint-label: THP-1 IC50 (nM)
Expressed in nM, but write only the number.

Record excerpt, results attached:
-- ask // returns reported THP-1 IC50 for input cyclo([bhcLeu][Nle][4Pal][Pip2c]W[NMeE]N[40Me3Pal][Trp(7-Cl)][αMeS][Phe(4-COOH)]Y[Sar][Trp(βS-Me,7-OMe)]) (reading uncertain; also: printed as cyclo(bhcLeu-Nle-4Pal-Pip2c-W-NMeE-N-40Me3Pal-Trp7Cl-aMeS-Phe4COOH-Y-Sar-SbMeW7OMe)) [SEQ ID NO. 100]
-- reply 1.3

-- ask // returns reported THP-1 IC50 for input cyclo([bhcLeu][Nle][4Pal][Pip2c]W[NMeE][MO2][4Pal][Trp(7-Cl)][αMeS][Phe(4-COOH)]Y[Sar][Trp(βS-Me,7-OMe)]) (reading uncertain; also: printed as cyclo(bhcLeu-Nle-4Pal-Pip2c-W-NMeE-MO2-4Pal-Trp7Cl-aMeS-Phe4COOH-Y-Sar-SbMeW7OMe)) [SEQ ID NO. 64]
-- reply 1.1

Now turn to the next binder.
-- ask // returns reported THP-1 IC50 for input cyclo([bhcLeu][Nle][4Pal][Pip2c]W[NMeE]N[4Pal][Trp(7-Cl)][αMeS][Phe(3-COOH)]Y[Sar][Trp(βS-Me,7-OMe)]) (reading uncertain; also: printed as cyclo(bhcLeu-Nle-4Pal-Pip2c-W-NMeE-N-4Pal-Trp7Cl-aMeS-Phe3COOH-Y-Sar-SbMeW7OMe)) [SEQ ID NO. 28]
-- reply 1.6
